Cited source for all entries: the Immune Epitope Database (IEDB)

system under test: HLA-A*24:02
method summary: IEDB peptide-MHC binding, purified MHC/competitive/fluorescence; bounds were set here for any values at or beyond the usual limits of such assays
condition details: source organism: Vaccinia virus WR
Exercise: state measured IC50 for each of the sequences provided.
Write down the numeric answer in µM and omit the unit.

Would you kindly share the measured IC50 for VGLITCKAF ?
7.71

Likewise for NVEYRFLVI ?
13.7

====

system under test: HLA-A*26:01
method summary: IEDB peptide-MHC binding, purified MHC/competitive/fluorescence; filed as Kd, often an IC50 or EC50 that approximates it; bounds were set here for any values at or beyond the usual limits of such assays
condition details: source organism: Reston ebolavirus
pKd: −log10 of the molar value.
experimental readout: pKd

Would you mind telling me what pKd value was observed for WFQRIPLQW ?
≤ 4.70
